So I've got a bunch of compounds here, and I need their GTP binding, percent of control values.
target: GTPase HRas (Homo sapiens) (UniProt P01112); test: Ras wt fluorescent GTP loading blockade – biochemical, wildtype, multiplex bead flow cytometry, dose response (AID 1335); conditions: bead-based flow cytometry, Bodipy-GTP binding to GST-Ras; at 100 µM (top of the series) unless noted
Sequence (P01112 whole entry, looked up): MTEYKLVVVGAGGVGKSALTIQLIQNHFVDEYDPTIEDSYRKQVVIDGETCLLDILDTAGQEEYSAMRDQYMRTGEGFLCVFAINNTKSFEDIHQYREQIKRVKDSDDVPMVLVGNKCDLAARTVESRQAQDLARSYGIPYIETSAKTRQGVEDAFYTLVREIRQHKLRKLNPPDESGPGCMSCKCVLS
Answers are plain numbers, in %.

{"columns": ["COMPOUND", "GTP binding, percent of control / %"],
 "data": [
  ["CCOC(=O)c1c(-c2ccc(C)cc2)csc1NC(=O)/C(C#N)=C/c1ccc(O)c(OC)c1", 99.4],
  ["Cc1ccc(-n2nc3c(SCCN4CCOCC4)nnc(C)c3c2C)cc1", 64.6],
  ["O=C(O)c1ccc(CNCc2ccc(F)cc2)cc1", 87.8],
  ["O=C(O)COc1ccccc1/C=N/NC(=O)c1cccc(S(=O)(=O)Nc2cccc(Cl)c2)c1", 79.8],
  ["Cc1cccc(CNc2nc(C)ccc2C(=O)O)c1", 218],
  ["COCCN(C(=S)Nc1cc(C)ccc1C)C(C)c1cccnc1 (stereo not drawn)", 63.7],
  ["COc1ccc(Cl)cc1NCc1sc(C(=O)O)cc1C", 84.3],
  ["CCN(CC)S(=O)(=O)c1ccc2oc(C(=O)N3CCc4ccccc4C3)c(C)c2c1", 78],
  ["Cc1cc2ccccn2c1C(=O)c1ccc(NN)c([N+](=O)[O-])c1", 83.1],
  ["COc1ccc(/C=N/Nc2ncnc3sc4c(c23)CCCC4)cc1O", 42.8]
]}

For each entry beneath this line, provide reported GTP binding, percent of control.
1. CC(=O)c1c(C)[nH]c(C(=O)N2CCc3ccccc3C2)c1C
2. Cc1cc2ccccn2c1C(=O)c1ccc(Cl)c([N+](=O)[O-])c1

### Response
1: 192; 2: 86.1

###

biological target: ATP-binding cassette sub-family B member 6 (Homo sapiens); assay: blockers of ABCB6-driven porphyrin uptake – K562-ABCB6 cells, flow cytometry, validation set, pilot screen (AID 588550); settings: K562-ABCB6 porphyrin accumulation, 1 h, at 10 µM;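 note: 0% = DMSO wells and 100% = benzethonium chloride 70 µM positive control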
Activity calls are given as the source filed them.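 Rule for the calls: active = inhibition above the screen-wide mean plus 3 SD, about 51%; inactive = the rest.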
I would appreciate it if you answered using one of these outcomes: yes (1) = active, no (0) = inactive

### Prompt Record lookup: outcome of this test for CSCCC(NC(=O)/C(=C/c1ccc2c(c1)OCO2)NC(=O)c1cccc([N+](=O)[O-])c1)C(=O)O (stereo not given) ?
### Response no (0)

###

biological target: Beta-adrenergic receptor kinase 1 (Homo sapiens); experiment: GRK2 binders displacing RNA aptamer, biochemical, validation, human GRK2, bead flow cytometry (AID 488806); settings: bead-bound GRK2, FAM-aptamer displacement, at 10 µM, stronger effect = higher value
PROPERTY_NAME: aptamer binding inhibition (%)
Give bare numbers, in %.

Example entries begin here.
{"columns": ["MOLECULE", "aptamer binding inhibition (%)"],
 "data": [
  ["CC1CCN(CCOCCOc2ccccc2Br)CC1", 0],
  ["O=c1oc2c(CN3CCCCC3)c(O)ccc2c2c1CCCCC2", 1],
  ["CCOc1ccc(N2C(=O)CNC2=S)cc1", 2]
]}

For each entry beneath this line, provide reported aptamer binding inhibition.
1. O=C(CN1C(=O)C2CCc3[nH]c4ccccc4c3C2C1=O)N1CCCC1 (centres undefined)
2. C[C@]12C[C@H](O)[C@H]3[C@@H](CCC4=CC(=O)CC[C@@]43C)[C@@H]1CC[C@@H]2C(=O)CO
3. COc1ccc(C(=O)COc2ccc(F)cc2)c(O)c1

### Response
1. 3
2. 4
3. 1
